Experiment: MicroPET blood and normal organ uptake in T47D and MDA-MB-435 tumor-bearing nude mice
Settings: nude, mouse, blood, iv, total radioactivity, Blood uptake, average of eight mice, 1 h
Observation type: tissue uptake at 1 h (%ID/g)
Record the value in %ID/g, omitting the unit from your answer.

Q: Could you tell me which tissue uptake at 1 h is on file for CSCC[C@H](NC(=O)[C@H](CC(C)C)NC(=O)[C@H](Cc1c[nH]cn1)NC(=O)CNC(=O)[C@@H](NC(=O)[C@H](C)NC(=O)[C@H](Cc1c[nH]c2ccccc12)NC(=O)[C@H](CCC(N)=O)NC(=O)CCCCCNC(=O)CC[C@H](NC(=S)Nc1ccc(C[C@H]2CN(CC(=O)O)CCN(CC(=O)O)CCN2CC(=O)O)cc1)C(=O)NCCCC[C@@H]1NC(=O)[C@@H](Cc2ccc(O)cc2)NC(=O)[C@H](CC(=O)O)NC(=O)CNC(=O)[C@H](CCCNC(=N)N)NC1=O)C(C)C)C(N)=O [^64Cu-NOTA-RGD-BBN, metal not drawn] ?
Ans: 1.01
